# subject of test: PPARα (Homo sapiens, UniProt Q07869)
# Sequence (Q07869 200-468 limits assumed): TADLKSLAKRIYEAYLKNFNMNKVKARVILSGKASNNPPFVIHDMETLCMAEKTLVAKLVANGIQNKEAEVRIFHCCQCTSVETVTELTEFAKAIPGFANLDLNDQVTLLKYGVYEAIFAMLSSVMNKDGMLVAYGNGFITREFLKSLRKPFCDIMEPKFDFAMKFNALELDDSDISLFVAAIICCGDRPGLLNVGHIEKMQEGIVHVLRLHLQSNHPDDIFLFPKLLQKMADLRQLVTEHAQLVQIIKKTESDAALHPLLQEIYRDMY
# procedure details: PPARα-GAL4 chimeric receptor transactivation in CHO-K1 cells
# Assay type: cell-based
# measurement conditions: PPAR-GAL4 chimeric receptors, transiently transfected CHO-K1 cells; ia = inactive at 10 μM; read-out: Transactivation activity EC50 PPARα
Recorded measurements of EC50, one per entry
A complete answer gives the number followed by the unit.

Example molecules with recorded EC50:
CCC(Cc1ccc(OC)c(C(=O)NCc2ccc(C(F)(F)F)cc2)c1)C(=O)O (centres unmarked) : 40 nM
COc1ccc(CC(OC)C(=O)O)cc1C(=O)NCc1ccc(C(F)(F)F)cc1 (centres unmarked) : 230 nM
COc1ccc(CC(C)C(=O)O)cc1C(=O)NCc1ccc(C(F)(F)F)cc1 (centres unmarked) : 240 nM
COc1ccc(CC(C(=O)O)C(C)C)cc1C(=O)NCc1ccc(C(F)(F)F)cc1 (centres unmarked) : 290 nM

Enter measured EC50, system PPARα (Homo sapiens, UniProt Q07869), for the molecule shown: CCCC(Cc1ccc(OC)c(C(=O)NCc2ccc(C(F)(F)F)cc2)c1)C(=O)O (centres unmarked) 360 nM

Enter measured EC50, system PPARα (Homo sapiens, UniProt Q07869), for the molecule shown: CCC(CC)(Cc1ccc(OC)c(C(=O)NCc2ccc(C(F)(F)F)cc2)c1)C(=O)O 2800 nM

Enter measured EC50, system PPARα (Homo sapiens, UniProt Q07869), for the molecule shown: COc1ccc(CC(C)(C)C(=O)O)cc1C(=O)NCc1ccc(C(F)(F)F)cc1 2900 nM

Enter measured EC50, system PPARα (Homo sapiens, UniProt Q07869), for the molecule shown: CCC(Cc1ccc(OC)c(CNC(=O)c2ccc(C(F)(F)F)cc2)c1)C(=O)O (racemic) 40 nM
